Quantity: logP

[[record]]
compound = "CCCCC(C(=O)OCC)n1nc2ccccc2n1 (configuration not stated)"
quantity = "logP"
numeric_result = 3.88

[[record]]
compound = "CCCCC(C(=O)OCC)n1nnc2ccccc21 (configuration not stated)"
quantity = "logP"
numeric_result = 3.32

[[record]]
compound = "c1ccc2nn(C3CCCC3)nc2c1"
quantity = "logP"
numeric_result = 3.04

[[record]]
compound = "c1ccc2c(c1)nnn2C1CCCCC1"
quantity = "logP"
numeric_result = 3.11


(a) CCOC(=O)C(CC)n1nnc2ccccc21 (configuration not stated)
(b) CC(C)(C(N)=O)n1nc2ccccc2n1
(c) CC(C)(C(N)=O)n1nnc2ccccc21
Please list the entries, largest logP first. List the labels in the requested order.
a, b, c

Numbers sourced from the OPERA property sets (Mansouri et al. 2018).
